- Method notes: PK parameters in male mice (Table 9)
- Format: in vivo
- Experimental parameters: ICR, mouse, in vivo, PO 3 mg/kg, read-out: Cmax
Measured Cmax, listed per entry for reference.

| Compound | Cmax (ng/mL) |
| --- | --- |
| CCN(c1ccc(C#N)c(Cl)c1)[C@H]1CC[C@H](NC(=O)c2ccc(N3CCC(N4CCN(c5ccc6c(c5)C(=O)N(C5CCC(=O)NC5=O)C6=O)CC4)CC3)cc2)CC1 (stereo partly drawn) | 102 |
| N#Cc1ccc(O[C@H]2CC[C@H](NC(=O)c3ccc(N4CCN(C5CCN(c6ccc7c(c6)C(=O)N(C6CCC(=O)NC6=O)C7=O)CC5)CC4)cc3)CC2)cc1Cl (stereo partly drawn) | 122 |
| CN(c1ccc(C#N)c(Cl)c1)[C@H]1CC[C@H](NC(=O)c2ccc(N3CCN(CC4CCN(c5ccc6c(c5)C(=O)N(C5CCC(=O)NC5=O)C6=O)CC4)CC3)cc2)CC1 (stereo partly drawn) | 60 |
